# TGT: Zinc finger protein mex-5 (Caenorhabditis elegans, UniProt Q9XUB2)
# Sequence (Q9XUB2 whole entry): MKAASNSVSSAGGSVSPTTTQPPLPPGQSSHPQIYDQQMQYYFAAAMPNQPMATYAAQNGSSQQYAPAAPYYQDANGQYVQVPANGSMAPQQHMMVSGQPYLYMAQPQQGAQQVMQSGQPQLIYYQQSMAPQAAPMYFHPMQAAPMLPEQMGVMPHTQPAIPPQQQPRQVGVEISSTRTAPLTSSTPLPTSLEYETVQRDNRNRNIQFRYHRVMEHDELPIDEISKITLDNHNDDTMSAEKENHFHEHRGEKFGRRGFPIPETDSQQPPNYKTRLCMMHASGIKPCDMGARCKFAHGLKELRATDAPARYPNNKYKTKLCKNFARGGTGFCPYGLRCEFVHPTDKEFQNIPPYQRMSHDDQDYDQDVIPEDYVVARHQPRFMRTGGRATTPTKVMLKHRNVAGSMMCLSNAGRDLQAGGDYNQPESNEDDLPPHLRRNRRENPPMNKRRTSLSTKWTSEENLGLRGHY
# TEST DESCRIPTION: potency of MEX-5 RNA-binding blockers – biochemical, C. elegans, fluorescence polarization, dose response (AID 1960)
The source made the active and inactive calls.
So I've got a bunch of compounds here, and I need their EC50 values.

Data request: Look at this compound and give its reported EC50. "O=C/C(=C\Nc1ccccn1)c1nc2ccccc2o1"
Data returned: > 300 µM (not active)

Data request: Ok, now CC1(OC(=O)c2cccs2)C(=O)C=C2C=C(C3CC3)OC=C2C1=O (configuration not stated)
Data returned: 33 µM (active)

Data request: Ok, now "COc1cc(/C=C2/C(=O)NN(c3cccc(C)c3)C2=O)cc([N+](=O)[O-])c1O"
Data returned: 89.1 µM (active)

Data request: Ok, now "COc1ccc(NC(=O)CCl)cn1"
Data returned: 8.06 µM (active)

Data request: Ok, now "N=c1c(C(=O)NCc2ccc(F)cc2)cc2c(=O)n3ccccc3nc2n1Cc1cccnc1"
Data returned: 46 µM (active)

Data request: Ok, now "COC(=O)/C(C#N)=C/c1c(Oc2cc(C)cc(C)c2)nc2c(C)cccn2c1=O"
Data returned: > 300 µM (not active)

Data request: Ok, now N#CC1=C(N)Oc2cc(O)c(Cl)cc2C1c1ccccc1F (configuration not stated)
Data returned: > 300 µM (not active)

Data request: Ok, now O=C(c1ccc(F)cc1)N1CCN(C2CCC(c3ccccc3)CC2)CC1 (configuration not stated)
Data returned: > 300 µM (not active)

Data request: Ok, now COCCNC(=O)C1Nc2ccc(OC(F)(F)F)cc2C2C=CCC12 (configuration not stated)
Data returned: > 300 µM (not active)

Data request: Ok, now "Cc1cc(/C=C2\C(=O)NC(=O)N(Cc3ccccc3)C2=O)c(C)n1C1CC1"
Data returned: > 300 µM (not active)

Data request: Ok, now Fc1ccc(C2=CC(c3ccco3)n3ncnc3N2)cc1 (configuration not stated)
Data returned: 12.8 µM (active)

Data request: Ok, now "COc1cc(/C=N/c2oc(-c3ccccc3)cc2C#N)ccc1O"
Data returned: > 300 µM (not active)

Data request: Ok, now "O=C(O)c1cc(O)c2c(c1)C(=O)c1cccc(O)c1C2=O"
Data returned: 21.6 µM (active)

Data request: Ok, now COc1cc(C2C(C#N)=C(N)OC3=C2C(=O)CC(C)(C)C3)c([N+](=O)[O-])cc1OC (configuration not stated)
Data returned: 23 µM (inconclusive)

Data request: Ok, now "COc1ccccc1N1C(=O)NC(=O)/C(=C/c2ccc([N+](=O)[O-])s2)C1=O"
Data returned: 23 µM (active)

Data request: Ok, now CSc1ccc(C2C(C(=O)c3ccco3)=C(O)C(=O)N2c2nnc(SC)s2)cc1 (configuration not stated)
Data returned: 16.4 µM (active)

Data request: Ok, now "CCC(=O)Nc1ccc2nc3c(O)nc(S)nc3nc2c1"
Data returned: 12.3 µM (active)

###

So I've got a bunch of molecules here, and I need their IC50 values.
# TGT: Leucine aminopeptidase (Plasmodium falciparum 3D7, UniProt Q8IL11)
# Sequence (Q8IL11 whole entry): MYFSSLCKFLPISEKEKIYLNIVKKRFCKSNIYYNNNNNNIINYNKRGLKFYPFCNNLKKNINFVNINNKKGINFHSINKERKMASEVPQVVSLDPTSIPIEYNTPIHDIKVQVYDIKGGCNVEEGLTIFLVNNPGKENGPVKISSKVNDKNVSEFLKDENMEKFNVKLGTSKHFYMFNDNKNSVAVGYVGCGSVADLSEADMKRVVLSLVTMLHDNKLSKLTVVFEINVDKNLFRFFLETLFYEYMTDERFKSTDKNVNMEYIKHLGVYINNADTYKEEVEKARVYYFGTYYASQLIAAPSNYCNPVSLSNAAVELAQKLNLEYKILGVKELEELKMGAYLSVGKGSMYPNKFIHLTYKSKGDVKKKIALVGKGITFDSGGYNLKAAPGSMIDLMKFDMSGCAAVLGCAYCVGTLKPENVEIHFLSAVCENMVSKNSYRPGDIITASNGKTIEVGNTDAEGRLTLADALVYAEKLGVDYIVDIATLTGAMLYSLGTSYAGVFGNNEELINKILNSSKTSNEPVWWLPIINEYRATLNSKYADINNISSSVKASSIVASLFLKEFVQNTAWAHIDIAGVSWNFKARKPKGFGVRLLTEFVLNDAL
# TEST DESCRIPTION: P. falciparum M17LAP inhibitors, primary screen, biochemical, fluorogenic H-Leu-NHMec substrate, 1536-well (AID 1619)
# Assay type: functional
Activity calls are given as the source filed them.

Data request: Look at this molecule and give its reported IC50. COc1ccc(NC(=O)CN2C(=O)CSC(C)C2=O)cc1 (stereo not given)
Data returned: 3.83 µM (active)

Data request: Ok, now "Cc1c(NC(=S)NC(=O)c2ccc(-c3ccc(Cl)cc3)o2)cccc1C(=O)O"
Data returned: 29.7 µM (active)

Data request: Ok, now "O=C1/C(=C/c2ccc(C(=O)O)cc2)CCC/C1=C\c1ccc(C(=O)O)cc1"
Data returned: 62.7 µM (active)

Data request: Ok, now Cc1ccc(-c2[nH]nc3c2C(c2ccoc2)C(C#N)=C(N)O3)cc1C (stereo not given)
Data returned: 3.65 µM (active)

Data request: Ok, now "O=C(O)C1CCN(c2nc(-c3ccccc3)nc3c2oc2ccccc23)CC1"
Data returned: 30.1 µM (active)
